Tested on: A549/ATCC NSCLC
Assay: NCI-60 one-dose screen, 48 h
Conditions: 10 µM
The panel holds about 83,000 compounds, 20% with a hit somewhere; the sample as a whole holds those more often. The source made the active and inactive calls. The calls were made as follows: active = growth percent below 10; inactive = the rest.
API: response.call in active, inactive

* CC(=O)Nc1nc(C)c(C(=O)NNC=O)s1 | inactive

Ask: Hey, what did the test say about `COc1cc(/C=C2\C(=O)Nc3cc(C)c(O)cc32)cc(OC)c1OC` ?
Reply: inactive

Ask: Hey, what did the test say about `Cc1ccc2c3c(cccc13)-c1ccccc1C2=O` ?
Reply: inactive

----------
Tested on: SK-MEL-5 melanoma
Test: NCI-60 one-dose screen, 48 h
Details: 10 µM
Experimental: Growth inhibition of the SK-MEL-5 human tumor cell line is measured as a screen for anti-cancer activity. Cells are grown in 96 well plates and exposed to the test compound for 48 hours. Compounds are tested at a single concentration, which is 10^-5 M for most compounds. The reported endpoint is percent growth (GI% or GIPRCNT), where numbers from 0 - 100% represent growth inhibition, and numbers from -100% - 0 represent cell death. For example, a value of 40 represents 60% growth inhibition. […]
This is part of a sample that, as a whole, favours compounds with a hit. Of some 83,000 tested, about 20% had one in any assay. The source made the active and inactive calls. The calls were made as follows: active = growth percent below 10; inactive = the rest.
API: response.call in true = active, false = inactive

Observe how each entry below is paired with its result.
* Cc1ccc2c3c(cccc13)-c1ccccc1C2=O | false
* c1ccc(COCC[P+](c2ccccc2)(c2ccccc2)c2ccccc2)cc1 | true
* Cc1nc(Nc2nc3ccccc3o2)nc(-c2cccc([N+](=O)[O-])c2)c1C(=O)Nc1ccc(F)c(Cl)c1 | true
* Cc1cnc(C=O)c2cccc([N+](=O)[O-])c12 | false
* Cc1cccc2c(Nc3ccc(NS(C)(=O)=O)cc3)c3ccc([N+](=O)[O-])cc3nc12 | true
* COc1cc(Cn2c(-c3ccccc3)cc3c2-c2oncc2CC3)cc(OC)c1 | true
* O=C(c1ccccc1)C(Sc1ccccc1)c1ccccc1 (stereo not given) | false
* COc1ccc(Nc2nc(NCc3ccccc3)c3ccccc3n2)cc1 | false

Here is the next item to consider.
Ask: Hey, what did the test say about `C/C(=N\NC(N)=S)C(C)(C)O` ?
Reply: false
